The reported measurements were obtained from patent US8691993B2.

Target: human CRTH2 receptor (Homo sapiens (Human), UniProt Q9Y5Y4)
Sequence (Q9Y5Y4 whole entry): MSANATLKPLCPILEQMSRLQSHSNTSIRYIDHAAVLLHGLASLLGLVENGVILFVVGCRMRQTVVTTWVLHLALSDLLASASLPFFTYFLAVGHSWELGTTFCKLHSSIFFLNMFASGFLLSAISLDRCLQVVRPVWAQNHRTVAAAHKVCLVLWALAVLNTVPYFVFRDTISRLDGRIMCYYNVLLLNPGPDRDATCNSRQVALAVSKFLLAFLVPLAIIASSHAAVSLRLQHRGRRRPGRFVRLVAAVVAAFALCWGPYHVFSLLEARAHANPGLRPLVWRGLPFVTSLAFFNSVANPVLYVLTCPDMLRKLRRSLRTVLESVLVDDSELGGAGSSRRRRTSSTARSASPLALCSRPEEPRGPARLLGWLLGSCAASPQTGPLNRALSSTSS
Experiment: Calcium Flux Assay Using Fluorometric Imaging Plate Reader (FLIPR)
Details: CHO-K1 cells transfected with G-alpha 16 and human CRTH2 receptor; DK-PGD2 ligand; 1 hour compound incubation
endpoint_label: IC50 (µM)
Lab book: enter the figure in µM, no units written.

Guide cases for IC50, answers given:
Report IC50 for "O=C(O)Cc1cc(C2CCN(S(=O)(=O)c3ccc(Cl)cc3)CC2)c2cc(F)ccc2c1" please. 0.042

For "O=C(O)Cc1cc(C2CCN(S(=O)(=O)c3ccccc3)CC2)c2cc(F)ccc2c1" then? 0.018

Again, but for "O=C(O)Cc1cc(C2CCN(S(=O)(=O)c3ccc(Cl)cc3Cl)CC2)c2cc(F)ccc2c1" 0.0048

// next entry
Fill blank: measured IC50 of the compound "O=C(O)Cc1cc(C2CCN(S(=O)(=O)c3cc(Cl)ccc3Cl)CC2)c2cc(F)ccc2c1" is ____. 0.0035

====

Listed next: entries and their corresponding IC50.
System: Th2 cells
Experiment: DK-PGD2-Induced IL-13 Production Assay in Th2 Cells
Format: cell-based
Details: inhibition of IL-13 production; human Th2 cells; 500 nM DK-PGD2; 4 hrs at 37° C.; ELISA
Description: DK-PGD2-Induced IL-13 Production Assay in Th2 Cells Inhibition of 13,14-dihydro-15-keto Prostaglandin D2 (DK-PGD2)-induced IL-13 production in T helper type 2 (Th2) cells was applied to evaluate compound cellular potency. […] The spontaneous production of IL-13 by Th2 cells was determined in the absence of DK-PGD2 stimulation and the value was subtracted from that in the presence of each compound for percent inhibition and IC50 calculations. […]
Please reply with the bare figure in nM and do not write the unit itself.

Reference set, count: 2
# lookup: IC50 of "Cc1c(CC(=O)O)cc2ccc(F)cc2c1C1CCN(C(=O)Nc2cccc(C(F)(F)F)c2)CC1" 437

Here is the next molecule: "Cc1c(CC(=O)O)cc2ccc(F)cc2c1C1CCN(C(=O)c2ccc(Cl)cc2Cl)CC1" 60

Here is another molecule to look at.
Requested read-out: IC50. Entry: "Cc1c(CC(=O)O)cc2ccc(F)cc2c1C1CCN(S(=O)(=O)Cc2cccc(Cl)c2)CC1" 45

====

Tested on: Th2 cells
Assay: DK-PGD2-Induced IL-13 Production Assay in Th2 Cells
Type: cell-based
Conditions: inhibition of IL-13 production; human Th2 cells; 500 nM DK-PGD2; 4 hrs at 37° C.; ELISA
endpoint_label: IC50 (µM)
The response must be a number in µM with no trailing unit.

Please tell me: IC50 of Cc1c(CC(=O)O)cc2ccc(F)cc2c1C1CCN(C(=O)Nc2c(F)cccc2F)CC1 [Example 32] , system Th2 cells? 0.371

Queued: Cc1c(CC(=O)O)cc2ccc(F)cc2c1C1CCN(S(=O)(=O)Cc2ccccc2[N+](=O)[O-])CC1 [Example 26] 0.032

Record: Cc1c(CC(=O)O)cc2ccc(F)cc2c1C1CCN(S(=O)(=O)c2cc(Cl)ccc2Cl)CC1 [Example 17] 0.12

Could you now look at the following compound, please?
Checklist item: IC50 tested on Th2 cells, entry Cc1c(CC(=O)O)cc2ccc(F)cc2c1C1CCN(S(=O)(=O)N2CCCC2)CC1 [Example 25] , value? 0.014
